molecular target: GalNAc(b1-4)GlcNAc; test: glycan array binding signal (z-score within array); higher = stronger binding; conditions: glycan notation: IUPAC condensed, linker removed
About 410 targets per protein were measured; listed, in parts, are those with the strongest signals and a random draw of the rest.
Recorded glycan array binding signal (z-score) values for a group of binders are listed next.
Lab note: record the figure alone, no unit after it.

TbCVNHOa (Tuber borchii), Q5MK11 (protein) GSHIGPYMSYADSSRNAVLTNGGRTLRAECRNADGNWVTSELDLDTCIGNPNGFLGWGMQNFSHSSEDIKLEEGGRKLTCRPKTVDGGFRERQGIDLNRIQNVNGRLVFQ; -0.239

Pending binder:
Request: Please give the measured glycan array binding signal (z-score) for this binder: AT3G09350(27) (Arabidopsis thaliana), Q84J81 (protein) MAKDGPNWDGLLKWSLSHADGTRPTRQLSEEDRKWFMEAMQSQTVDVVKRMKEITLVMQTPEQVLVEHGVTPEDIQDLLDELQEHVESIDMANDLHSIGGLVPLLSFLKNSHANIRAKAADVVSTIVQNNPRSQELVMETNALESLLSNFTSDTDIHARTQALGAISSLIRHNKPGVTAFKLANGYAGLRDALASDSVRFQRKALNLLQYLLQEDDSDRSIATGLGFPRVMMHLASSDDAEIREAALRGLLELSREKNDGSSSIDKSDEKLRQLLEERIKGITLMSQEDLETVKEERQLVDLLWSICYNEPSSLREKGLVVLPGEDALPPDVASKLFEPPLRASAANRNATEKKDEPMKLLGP
Response: 7.59
